Test system: UO-31 renal
Experiment: NCI tumour cell line growth inhibition, 48 h; in the data active = GI50 below about 0.43 µM; inactive = the rest
Could you please pick one outcome from this set? active, inactive

Query: Tell me the recorded outcome of this test for COC(=O)Nc1nc2ccc(C(=O)c3ccc(N(C)C4COC4)cc3)cc2[nH]1 .
Response: inactive

Query: Now consider CN1CCN(c2cc(C(=O)Nc3cc4cc(-c5cnn(C)c5)ccc4cn3)ccn2)CC1 and answer again.
Response: active

Query: Same read-out for COc1ccc(/C=C2\CC(C)CC3C2=NN(C(C)=O)C3c2ccc(OC)cc2)cc1 (stereo not drawn) ?
Response: inactive

Query: Param item: CC(=O)N1c2ccccc2NC2=C(C(=O)N(Cc3ccccc3)C2(C)C)C1c1ccco1 (stereo not drawn)
Response: inactive

Query: What about O=C(O)CCC/C=C\C[C@H]1C=CC(=O)/C1=C/C[C@@H](O)CCc1cccc(C(F)(F)F)c1 ?
Response: inactive

Query: Do the same for O=Cc1ccc(-c2ccc(-c3nc4ccccc4o3)cc2)s1 please
Response: inactive

Query: // next record CS(=O)(=O)Nc1cccc(-c2cc(-c3ccccc3Cl)c(C#N)c(N)n2)c1
Response: inactive

Query: What do you get for COC1=CC(=O)C(OC)=C(OC)C1=O ?
Response: inactive

* * *

Test system: SNB-19 CNS
Assay: NCI tumour cell line growth inhibition, 48 h
Answer each item with its documented TGI.

Query: TGI lookup needed for O=C(Nc1nn(C(=O)c2ccc(Cl)cc2)c(=O)s1)c1ccc(Cl)cc1 , thanks.
Response: > 100 µM

Query: What about OC[C@]1(n2nc3ccccc3n2)OC[C@@H]1c1ccccc1 ?
Response: > 100 µM

Query: Field entry: Cc1[nH]c2ccccc2c1-c1cc(-c2cc(-c3c(C)[nH]c4ccccc34)nc(N)n2)nc(N)n1
Response: > 100 µM

Query: Please answer likewise for C=C1C(=O)OC2/C=C(/C)C3CC(O)C(C)(CC(OC(=O)/C(C)=C/C)C12)O3 (centres undefined)
Response: 30.8 µM

Query: Quick one: O=C(Cc1nc2ccccc2s1)C(=O)Nc1cccc(Cl)c1
Response: > 100 µM

Query: Next entry: Nc1ccccc1NC(=O)c1ccc(CCCC(=O)Nc2ccc(C3CC3N)cc2)cc1 (centres undefined)
Response: > 100 µM

Query: Also check CC(=O)O[C@@H]1[C@@H](O)C2=C3[C@]4(C)[C@@H]1C(C)(C)C(=O)C[C@@H]4[C@]3(O)[C@H](OC(C)=O)[C@@]1(C[C@@H]1C)C2=O
Response: 61.5 µM

Query: Queued: O=[N+]([O-])c1ccccc1NC1c2ccccc2Oc2ccccc21
Response: > 100 µM

Query: Likewise for C[C@@H](CN1CC(=O)NC(=O)C1)N1CC(=O)NC(=O)C1 ?
Response: 1370 µM

Query: Quick one: CN(CC#N)C1CCCC[C@H]1O (some centres undefined)
Response: > 100 µM

Query: Another compound to look at: O=C(C[n+]1ccccc1)N/N=C(\Cc1nc2ccc([N+](=O)[O-])cc2[nH]c1=O)C(=O)Nc1cc(Cl)c(Cl)cc1Cl
Response: > 100 µM

Query: Another compound: COc1ccc(-c2nc(C(=O)c3ccccc3)n(CC(=O)c3ccccc3)c2-c2ccc(OC)cc2)cc1
Response: > 100 µM

Query: Now give it for CCCCc1ccc(Nc2nc(=S)c3[nH]cnc3[nH]2)cc1 too.
Response: 56.8 µM

Query: Thanks! And CC#C/C(=N\OC[C@H]1COCCN1)c1ccc2ncnc(Nc3ccc(OCc4cccc(F)c4)c(Cl)c3)c2c1 ?
Response: 2.69 µM

Query: Okay, and N#CC(=C1CCCCC1)c1nc2ccccc2o1 ?
Response: > 100 µM

Query: Also check CC(C)(C)NC(=O)NC12CC3CC(CC(F)(C3)C1)C2
Response: > 100 µM

Query: Queued: COc1cc2c(cc1OC)C(OC)N(C)c1c-2ccc2cc3c(cc12)OCO3 (centres undefined)
Response: > 75 µM

Query: For N#CSc1c[nH]c2ccc(/C=C/C(=O)/C=C(/C=C/c3ccc4[nH]cc(SC#N)c4c3)OB(F)F)cc12 then?
Response: 14.7 µM

Query: Please give the result for Cc1nc(C(N)=S)sc1C(/C=C/c1ccc(Cl)c(Cl)c1)=N/NC(C)(C)C too.
Response: > 100 µM

Query: Queued: Cc1nccc2c3ccc(OCc4cn(-c5ccc(Cl)cc5)nn4)cc3n(CCCc3ccccc3)c12
Response: > 33.3 µM

Query: Proceed to CN1CCCCC(C#N)(c2ccccc2)CC1 (centres undefined)
Response: > 100 µM

Query: Also, Cc1nc2c(nc1C)-c1c(c3c(n1C)C(=O)CCC3)C(=O)C2=O please.
Response: 2.82 µM

Query: # repeat for CCn1cc(-c2ccnc3[nH]ccc23)c(-c2cccc(NC(=O)Nc3ccc(OCc4ccccc4)cc3)c2)n1
Response: > 25 µM

Query: And then COc1cc2c3c(n(CCCNCCCNCCCNCCCN)c(=O)c2cc1OC)-c1cc2c(cc1C3=O)OCO2 , what is it?
Response: 15.4 µM

* * *

Tested on: OVCAR-4 ovarian
Assay: NCI tumour cell line growth inhibition, 48 h
ENDPOINT: TGI

Query: So what does the record say about TGI for O=C1N2CCc3c([nH]c4ccccc34)C23CC2CCCCC12S3 (stereo not drawn) ?
Response: > 100 µM

Query: Another compound to look at: Cc1ccccc1C(=O)Oc1ccc(O)cc1
Response: > 100 µM

Query: Same again, this time with O=C1NC(N2CCCCC2)=N/C1=C\c1cccs1
Response: > 100 µM

* * *

Give TGI for every item shown.
Test system: SN12C renal
Assay: NCI tumour cell line growth inhibition, 48 h

Query: Which TGI value belongs to c1ccc(C2=NOC3(c4ccccc4)SC4CCCCC4CN23)cc1 (stereo unspecified) ?
Response: > 100 µM

Query: Also need C/C1=C/C(C)CC(C)OC(=O)C(C)NC(=O)C(Cc2ccc(O)c(I)c2)N(C)C(=O)C(C)NC(=O)C(C)C1 (stereo unspecified) , thanks.
Response: > 89.2 µM

Query: Same for C=C1C(=O)OC2/C=C(/C)C3CC(O)C(C)(CC(OC(=O)/C(C)=C/C)C12)O3 (stereo unspecified)
Response: 11.3 µM

Query: Now consider CS(=O)(=O)c1c(N)c2nc(Cl)cn2c2nc3ccccc3nc12 and answer again.
Response: > 100 µM

Query: Same thing, different compound: CN(C)CC1COC2Cc3ccccc3C1O2 (stereo unspecified)
Response: > 100 µM

Query: Also check O=C(O)c1cc2ccccc2oc1=O
Response: > 100 µM

Query: Try this compound next: COC(C(=O)C(O)C(C)O)C1CC2C=C3C=C(OC4CC(OC5CC(O)C(OC)C(C)O5)C(OC(C)=O)C(C)O4)C(C)C(=O)C3=C(O)C2=C(O)C1OC1CC(OC2CC(OC3CC(C)(O)C(OC(=O)C(C)C)C(C)O3)C(O)C(C)O2)C(O)C(C)O1 (stereo unspecified)
Response: < 0.01 µM

Query: Param item: CN1CCN(c2ccc(Nc3nc(N)c(C(=O)c4ccc5c(c4)OCCO5)s3)cc2)CC1
Response: > 25 µM

Query: Could you do the same for Cc1ccccc1C(=O)Oc1ccc(O)cc1 , please?
Response: > 100 µM

Query: Next entry: O=C(/C=C/C=C/c1c(C2CC2)nc2ccccc2c1-c1ccc(F)cc1)c1cccs1
Response: > 100 µM

Query: Entry to check: CC(C)(C)OC(=O)N(O)CCCn1cnc2c(N)ncnc21
Response: > 100 µM

Query: Similarly, CCCCCCCCCc1cc[n+](CC(=O)c2ccc([N+](=O)[O-])cc2)cc1 ?
Response: 1.9 µM

Query: Try this compound next: C[C@@H]1Cc2c([nH]c3ccccc23)[C@@H](c2c(F)cc(NC3CN(CCCF)C3)cc2F)N1CC(F)(F)CO
Response: 23.1 µM

Query: Let us now turn to CCOC(=O)Cc1csc2[n+]1C(=O)/C(=C/c1cccc(OC)c1O)S2
Response: > 100 µM

Query: Then N#CC(C#N)=C(N)/C(C#N)=C/c1ccc2ccccc2n1 ?
Response: > 100 µM

Query: Check O=S(=O)(SCc1ccccc1)C(c1ccccc1)c1ccccc1 too.
Response: 68.2 µM

Query: Also need CC1(C)CC23CC(C)(C)c4cccc(c42)OCc2ccc4ccc5ccc(nc5c4n2)COc2cccc1c23 , thanks.
Response: > 50 µM

Query: Also need O=C(O)CS , thanks.
Response: > 100 µM

Query: Also O=C(/C=C1\C[C@H]2C=Nc3ccccc3C(=O)N2C1)NCCCCNC(=O)/C=C1\C[C@H]2C=Nc3ccccc3C(=O)N2C1 ?
Response: 11.4 µM

Query: How about CC(C)OP(=O)(OC(C)C)/C(C#N)=C/c1ccco1 ?
Response: > 100 µM

Query: Do the same for COC(=O)c1c(O)c([N+](=O)[O-])cc2c1c1c(n2Cc2ccccc2)C(=O)c2ccccc2C1=O please
Response: 65.7 µM

Sourced from PubChem BioAssay (NCI)
